# study-system: human histamine H3 receptor (Homo sapiens, UniProt Q9Y5N1)
# Construct: host or cells: cells expressing the human H3 receptor
# Sequence (Q9Y5N1 whole entry): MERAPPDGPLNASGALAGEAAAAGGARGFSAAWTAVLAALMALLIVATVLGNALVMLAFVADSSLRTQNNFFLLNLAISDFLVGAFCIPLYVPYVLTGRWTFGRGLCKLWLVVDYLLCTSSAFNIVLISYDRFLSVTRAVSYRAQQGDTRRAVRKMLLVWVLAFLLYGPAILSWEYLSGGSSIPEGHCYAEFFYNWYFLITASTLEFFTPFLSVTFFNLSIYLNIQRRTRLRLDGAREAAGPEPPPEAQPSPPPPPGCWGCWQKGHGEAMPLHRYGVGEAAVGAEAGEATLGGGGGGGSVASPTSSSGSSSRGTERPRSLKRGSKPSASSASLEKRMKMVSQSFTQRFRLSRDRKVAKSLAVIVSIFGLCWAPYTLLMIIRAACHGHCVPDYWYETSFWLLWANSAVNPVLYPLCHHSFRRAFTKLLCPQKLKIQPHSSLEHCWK
# procedure-summary: H3 GTPγS assay (SPA method), histamine H3 in vitro assay
# Format: biochemical
# condition-set: GTPγ[35S] SPA, membranes of cells expressing human H3 receptor; in one embodiment HCl salts tested; read-out: Potency (functional potency as indicated by IC50)
readout: IC50

Entry c1cc2c(cc1CN1CCOCC1)CC1(CCN3CCCCC3C1)O2 (stereo not drawn) [Compound 79] , IC50 reported as ≤ 10 nM

The reported IC50 of the compound `c1cc2nc(-c3ccc4c(c3)CC3(CCN(C5CCC5)CC3)O4)cnc2[nH]1` was ≤ 10 nM

IC50 reading for `c1cc2c(cc1CN1CCCC1)OC1(CCN(C3CCC3)CC1)C2` : ≤ 100 nM

Summary for this compound, c1ccc2c(c1)CCN(Cc1ccc3c(c1)CC1(CCN4CCCCC4C1)O3)C2 (stereo not drawn) [Compound 81] : IC50 is ≤ 10 nM

Sure, the documented IC50 for `N#Cc1ccc(-c2ccc3c(c2)CC2(CCN(C4CCCCC4)CC2)O3)cc1` is ≤ 100 nM

Memo: N#Cc1ccc(-c2ccc3c(c2)CC2(CCC4CCCCN4CC2)O3)cc1 (stereo not drawn) , reported IC50: ≤ 10 nM

Record Brc1ccc2c(c1)CC1(CCN3CCCC3C1)O2 (stereo not drawn) . Reported IC50: ≤ 100 nM

c1cc2c(cc1N1CCCCC1)CC1(CCCN(C3CCC3)CC1)O2 (stereo not drawn) yielded IC50 of ≤ 100 nM

The value of IC50 measured for the compound `Cn1cnc2cc(-c3ccc4c(c3)CC3(CCN(C5CCC5)CC3)O4)cnc21` turned out to be ≤ 10 nM

Sure, the documented IC50 for `c1ccc2c(c1)CC1(CCN(C3CCC3)CC1)O2` is ≤ 100 nM

Noted for c1cn2cc(-c3ccc4c(c3)CC3(CCCN(C5CCC5)CC3)O4)ccc2n1 (stereo not drawn) : its IC50 reads ≤ 100 nM

Value of IC50 reported for the compound Brc1ccc2c(c1)CC1(CCN3CCCCC3C1)O2 (single isomer, unassigned) [Compound 73] is ≤ 100 nM

Briefly, IC50 measured for `c1cc2cc(-c3ccc4c(c3)CC3(CCN(C5CCC5)CC3)O4)cnc2[nH]1` : ≤ 100 nM

// sample c1ccc2c(c1)ncn2-c1ccc2c(c1)OC1(CCCN(C3CCC3)CC1)C2 (stereo not drawn) , its IC50 was ≤ 10 nM

`COc1ccnc(-c2ccc3c(c2)CC2(CCN(C4CCC4)CC2)O3)n1` yielded IC50 of ≤ 100 nM

Reported IC50 for `c1nc2ccc(-c3ccc4c(c3)CC3(CCN(C5CCC5)CC3)O4)cn2n1` was ≤ 10 nM

Memo: c1cc2c(cc1N1CCCCC1)OC1(CCCN(C3CCC3)CC1)C2 (stereo not drawn) , reported IC50: ≤ 100 nM

IC50 recorded for this compound, c1cn2cc(-c3ccc4c(c3)CC3(CCN5CCCCC5C3)O4)ccc2n1 (stereo not drawn) [Compound 76] , is ≤ 10 nM

Sourced from patent US20120077802A1
